assay: compound fluorescence in toxin protease inhibitor counterscreen, primary screen, artefact control for toxin protease inhibitor project, biochemical, multiplex microsphere, HTS (AID 624483); settings: compound autofluorescence counterscreen, microsphere flow cytometry; active compounds read high
The whole screen tested about 360,000 compounds, of which about 11,000 (3.1%) were called active. Not shown: some 2% with an inconclusive outcome. This excerpt belongs to a sample that is enriched for actives.
fluorescence intensity by entry:

Here is how some compounds turned out for fluorescence intensity.
{"compound": "COc1ccc(CNC(=O)c2ccc(-c3cccnc3)c3ccoc23)cc1OC", "experimentalValue": "3080 (inactive)"}
{"compound": "COC(=O)c1ccc2nc(-c3ccc(C)cc3)c(Cc3ccc(OC)cc3C)n2c1", "experimentalValue": "7150 (inactive)"}
{"compound": "C[C@H]1CN([C@@H](C)CO)C(=O)Cc2cc(NS(C)(=O)=O)ccc2O[C@@H]1CN(C)CC1CC1", "experimentalValue": "3570 (inactive)"}

INPUT: Dear colleague, I am looking for the recorded fluorescence intensity of the following compound: CCOC(=O)c1nnn(-c2nonc2-n2cccc2)c1CN1CCOCC1
OUTPUT: 10800 (inactive)

INPUT: Consider next the compound CC1(C(=O)NCc2ccc3c(c2)OCO3)CCN1CCc1ccccc1 (stereo not given) in the same way.
OUTPUT: 3940 (inactive)
